The measurements presented in this section are drawn from patent EP2576536B1.

- SUBJECT_OF_TEST: H-PGDS (Homo sapiens, UniProt O60760)
- Construct: made in house; host or cells: Escherichia coli BL21 DE3
- Sequence (O60760 whole entry): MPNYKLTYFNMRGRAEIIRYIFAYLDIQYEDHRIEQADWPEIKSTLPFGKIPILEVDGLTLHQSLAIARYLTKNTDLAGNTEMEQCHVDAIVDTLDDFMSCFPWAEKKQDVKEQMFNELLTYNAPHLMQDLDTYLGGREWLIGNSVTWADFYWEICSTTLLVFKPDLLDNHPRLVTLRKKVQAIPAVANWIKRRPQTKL
- METHOD_SUMMARY: H-PGDS catalyzed conjugation of GSH and CDNB, enzyme inhibition assay
- Type: biochemical
- CONDITION_CONTEXT: percent inhibition at 50 µM; Mean ± Standard Error of triplicate experiments
Consider the following molecules; for each one, report its I[50].
Output should be the measured figure followed by the unit it is expressed in.

{"SMI": "N#Cc1ccc(-c2ccc(C(=O)N[C@@H](Cc3ccccc3)C(N)=O)cn2)s1", "RESULT": "67.9 ± 1.6%"}
{"SMI": "NC(=O)[C@H](Cc1ccccc1)NC(=O)c1ccc(-c2ccc(C(=O)O)s2)nc1", "RESULT": "19.4 ± 1.4%"}
{"SMI": "Cc1cc(-c2ccc(C(=O)N[C@@H](Cc3ccccc3)C(N)=O)cn2)sc1C#N", "RESULT": "34.6 ± 2.1%"}

Could you now consider this next molecule?
INPUT: Recall the reported I[50] of `O=C(c1ccc(-c2cccs2)nc1)N1CCC(N2C(=O)OCc3ccccc32)CC1` on H-PGDS (Homo sapiens, UniProt O60760) and write it down.
OUTPUT: 87.9 ± 1.1%
